Provide the recorded Growth inhibition, Compound for the entries that follow.
Test system: E. coli MG1655
Assay: High-throughput screening of FDA-approved drug library for antibiotic adjuvants (growth inhibition, OD600)
Type: cell-based, Escherichia coli
Conditions: library drug alone, LB medium, 96-well, 8 h static culture at 37°C, relative to PMBN (positive) and DMSO (negative) controls, %, table head prints no unit
Where a name gives a salt, the structure may show the parent alone.
One number for each entry, in %.

molecule	unit.info	Growth inhibition, Compound
CC[C@H]1OC(=O)[C@H](C)[C@@H](O[C@H]2C[C@@](C)(OC)[C@@H](O)[C@H](C)O2)[C@H](C)[C@@H](O[C@@H]2O[C@H](C)C[C@H](N(C)C)[C@H]2O)[C@](C)(O)C[C@@H](C)CN[C@H](C)[C@@H](O)[C@]1(C)O	%	114
C[C@@H](O)[C@H]1C(=O)N2C(C(=O)O)=C(SCCN=CN)C[C@H]12 [Imipenem monohydrate]	%	109
C=C1c2c(Cl)ccc(O)c2C(=O)C2=C(O)[C@]3(O)C(=O)C(C(N)=O)=C(O)[C@@H](N(C)C)[C@@H]3[C@@H](O)[C@H]12.O=C(O)c1cc(S(=O)(=O)O)ccc1O [Meclocycline sulfosalicylate salt]	%	100
CC1(C)S[C@@H]2[C@H](NC(=O)[C@H](NC(=O)N3CCN(S(C)(=O)=O)C3=O)c3ccccc3)C(=O)N2[C@H]1C(=O)O [Mezlocillin Sodium]	%	89
CC1(C)S[C@@H]2[C@H](NC(=O)[C@H](N)c3ccccc3)C(=O)N2[C@H]1C(=O)OCOC(=O)[C@@H]1N2C(=O)C[C@H]2S(=O)(=O)C1(C)C [Sultamicillin]	%	106
O=c1[nH]c(=O)n([C@H]2C[C@H](O)[C@@H](CO)O2)cc1C(F)(F)F	%	27
NCc1ccccc1CC(=O)N[C@@H]1C(=O)N2C(C(=O)O)=C(CSc3nnnn3CC(=O)O)CS[C@H]12 [Ceforanide]	%	94
CN(C)c1ccc(O)c2c1C[C@H]1C[C@H]3[C@H](N(C)C)C(O)=C(C(N)=O)C(=O)[C@@]3(O)C(O)=C1C2=O [Minocycline hydrochloride]	%	91

Turning now to a further record.
Query :: What does the record list as Growth inhibition, Compound for `CCn1cc(C(=O)O)c(=O)c2cc(F)c(N3CCNCC3)cc21` ?
Result :: 99
